- measurement-target: recombinant human FAAH (Homo sapiens)
- test-name: FAAH inhibition, apparent IC50 with AMC substrate
- run-parameters: 30 min preincubation with recombinant human FAAH and AMC; read-out: Apparent IC50s
Provide the reported pIC50 of each item.
// field semantics: pIC50 = negative decimal log of concentration (mol/L)

Entry O=C(Nc1cccnn1)N1CCC(=Cc2cccc(Oc3ccc(C(F)(F)F)cn3)c2)CC1 [PF-04457845] , pIC50 reported as 8.52

Entry NC(=O)c1cccc(-c2cc(OC(=O)NC3CCCCC3)ccc2O)c1 [URB937] , pIC50 reported as 7.16

###

- measurement-target: recombinant human FAAH (rhFAAH) (Homo sapiens)
- Construct: purchased Cayman Chemical (Ann Arbor, MI, USA)
- Sequence (O00519 whole entry): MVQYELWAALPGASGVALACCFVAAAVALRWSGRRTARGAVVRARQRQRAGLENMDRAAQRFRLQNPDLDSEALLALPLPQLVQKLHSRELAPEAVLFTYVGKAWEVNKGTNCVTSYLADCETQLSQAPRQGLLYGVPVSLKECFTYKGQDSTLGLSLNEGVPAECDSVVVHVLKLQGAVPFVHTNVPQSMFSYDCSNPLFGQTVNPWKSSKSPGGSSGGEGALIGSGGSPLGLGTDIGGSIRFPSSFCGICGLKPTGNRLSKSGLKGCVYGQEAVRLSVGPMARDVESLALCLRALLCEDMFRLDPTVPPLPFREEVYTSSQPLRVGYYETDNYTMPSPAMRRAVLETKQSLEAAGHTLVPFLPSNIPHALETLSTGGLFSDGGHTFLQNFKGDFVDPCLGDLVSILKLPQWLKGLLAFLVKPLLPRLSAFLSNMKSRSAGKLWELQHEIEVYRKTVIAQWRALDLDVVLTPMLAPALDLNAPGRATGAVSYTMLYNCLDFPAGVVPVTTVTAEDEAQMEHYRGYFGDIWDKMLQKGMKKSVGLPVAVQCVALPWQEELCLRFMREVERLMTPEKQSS
- test-name: FAAH substrate evaluation: formation of acid metabolite
- Assay type: biochemical
- run-parameters: 0.5 ng/μL rhFAAH, 1 μM test compound, room temperature, pH 8.0, 0-60 minutes
reported-endpoint: ke (observed rate constant for the acid metabolite formation)

CC(C)CN(C)C(=O)COc1cc(Cl)c(Cc2ccc(O)c(C(C)C)c2)c(Cl)c1    C (C = ke is 0)
CC(C)c1cc(Cc2c(Cl)cc(OCC(=O)NC(C)(C)C)cc2Cl)ccc1O    C (C = ke is 0)
